meta.source: the supplement of paper PMC10567573

B1: ETS1 (parent)
chain: YVRDRADLNKDKPVIPAAALAGYT

Variants of: B1
Test: protein stability index of a GFP-peptide fusion (GPS, HEK-293T) (PSI 1-6); higher = more stable;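 further: lentivirally expressed fusions sorted by FACS into six bins by GFP to DsRed ratio, PSI derived from sequencing read proportions per bin multiplied by bin number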
Conditions: c terminus: a fixed tail appended
Catalogue of protein stability index values
Provide a numeric answer; units are not to be included.

[[record]]
alteration = "D7W"
readout_number = 2.52


So what's the measured protein stability index for this one? K12N 2.29

Please report the recorded protein stability index for R3Y . 2.54

Quick one: protein stability index of V14Y ? 1.8

GET /values?readout=protein stability index&item= G22A 2.8

Which protein stability index reading was recorded for the variant N9A ? 2.17
